biological target: mu receptor (Rattus norvegicus, UniProt P33535); construct: The brain tissue, rat whole brain minus cerebellum for mu was homogenized; from tissue; host or cells: brain minus cerebellum of male Sprague Dawley rats, homogenate fraction; assay: Naloxone [3H] opioid receptor binding assay (mu receptor); set-up: species or system rat (male Sprague Dawley); conditions: […]; rat whole brain minus cerebellum; [3H]naloxone 0.5 nM; pH 7.4, 37° C., 20 min; read-out: Ki
Sequence (P33535 whole entry): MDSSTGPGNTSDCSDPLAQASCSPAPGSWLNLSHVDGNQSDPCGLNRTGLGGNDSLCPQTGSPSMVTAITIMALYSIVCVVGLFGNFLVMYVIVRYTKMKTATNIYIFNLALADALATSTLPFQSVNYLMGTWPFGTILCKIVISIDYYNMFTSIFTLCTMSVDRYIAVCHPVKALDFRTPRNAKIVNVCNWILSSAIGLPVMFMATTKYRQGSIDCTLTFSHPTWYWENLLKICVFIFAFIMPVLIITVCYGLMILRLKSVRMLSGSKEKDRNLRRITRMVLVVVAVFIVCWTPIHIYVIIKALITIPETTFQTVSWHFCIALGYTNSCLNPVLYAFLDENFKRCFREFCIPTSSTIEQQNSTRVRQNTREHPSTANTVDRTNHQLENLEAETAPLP
Counter-ions that a name gives are not always drawn.
observable: pKi
Here pKi is given on a logarithmic scale as minus log10 of the concentration in mol/L.

Entry `CNC(=O)COC(=O)CCCC(=O)N[C@@H](CC1CCCCC1)CN1CC[C@@](C)(c2cccc(O)c2)[C@@H](C)C1` — recorded pKi = 8.67

Entry `CCCOC(=O)CCCC(=O)N[C@@H](CC1CCCCC1)CN1CC[C@@](C)(c2cccc(O)c2)[C@@H](C)C1` — recorded pKi = 8.29

Entry CC(C)C(=O)NCCCC(=O)NC(CCCNC(=N)N[N+](=O)[O-])C(=O)NC(CCN1CC[C@@](C)(c2cccc(O)c2)[C@@H](C)C1)c1ccccc1 (single isomer, unassigned; (-)) — recorded pKi = 8.88

Entry `C[C@@H]1CN(C[C@H](CC2CCCCC2)NC(=O)CCCC(=O)OCC(N)=O)CC[C@]1(C)c1cccc(O)c1` — recorded pKi = 8.22

Entry C[C@H]1CN(CCCN(CC2CCCCC2)C(=O)CCCC(=O)O)CC[C@@]1(C)c1cccc(O)c1 (relative stereo) [Example 27, monohydrate] — recorded pKi = 8.10

Entry C[C@H]1CN(CCC(CC2CCCCC2)NC(=O)CCCC(=O)O)CC[C@@]1(C)c1cccc(O)c1 (stereo in doubt) [Example 7, monohydrochloride monohydrate] — recorded pKi = 9.20

Entry `CCOC(=O)CCCC(=O)N[C@@H](CC1CCCCC1)CN1CC[C@@](C)(c2cccc(O)c2)[C@@H](C)C1` — recorded pKi = 8.63

Entry CNC(=O)CC(=O)N(CCN1CC[C@@](C)(c2cccc(O)c2)[C@@H](C)C1)C1CCCCC1 (relative stereo) [Example 36, monohydrate] — recorded pKi = 8.52

Entry C[C@H]1CN(CCN(C(=O)CCC(=O)O)C2CCCCC2)CC[C@@]1(C)c1cccc(O)c1 (relative stereo) [Example 22, monohydrate] — recorded pKi = 8.44

Entry CC1CN(CCNC(=O)[C@H](CCCNC(=N)N[N+](=O)[O-])NC(=O)OC(C)(C)C)CCC1(C)c1cccc(O)c1 (stereo partly shown) — recorded pKi = 8.63

Entry C[C@H]1CN(CCN(C(=O)CCCC(=O)O)C2CCCCC2)CC[C@@]1(C)c1cccc(O)c1 (relative stereo) [Example 23, monohydrate] — recorded pKi = 8.36

Entry `C[C@H]1CN(C[C@H](CC2CCCCC2)NC(=O)CCCC(=O)OCC(=O)N(C)C)CC[C@@]1(C)c1cccc(O)c1` — recorded pKi = 8.82

Entry C[C@@H]1CN(C[C@H](CC2CCCCC2)NC(=O)CCCC(=O)O)CC[C@]1(C)c1cccc(O)c1 [Example 47D] — recorded pKi = 8.81

* * *

target: mu receptor (Rattus norvegicus, UniProt P33535); construct: The brain tissue, rat whole brain minus cerebellum for mu was homogenized; from tissue; host or cells: brain minus cerebellum of male Sprague Dawley rats, homogenate fraction; experiment: Naloxone [3H] opioid receptor binding assay (mu receptor); set-up: species or system rat (male Sprague Dawley); conditions: 20 min, pH 7.4, read-out: % displacement at 100 nM
Counter-ions that a name gives are not always drawn.
observable: inhibition at 0.1 µM (%)
Write the number in % without appending the unit.

Entry CCOC(=O)CCC(=O)N(CCN1CC[C@@](C)(c2cccc(O)c2)[C@@H](C)C1)C1CCCCC1 (relative stereo) [Example 71] — recorded inhibition at 0.1 µM = 96

Entry CCOC(=O)CCC(=O)NC(CCN1CC[C@@](C)(c2cccc(O)c2)[C@@H](C)C1)CC(C)C (stereo partly shown) [Example 2B] — recorded inhibition at 0.1 µM = 99

Entry C[C@H]1CN(CCCN(C(=O)CCCC(=O)O)C2CCCCC2)CC[C@@]1(C)c1cccc(O)c1 (relative stereo) [Example 25] — recorded inhibition at 0.1 µM = 93

Entry CCOC(=O)CCCC(=O)N[C@@H](CC1CCCCC1)CN1CC[C@](C)(c2cccc(O)c2)[C@H](C)C1 [Example 51] — recorded inhibition at 0.1 µM = 97

Entry CC(C)CC(CCN1CC[C@@](C)(c2cccc(O)c2)[C@@H](C)C1)NC(=O)CCCC(=O)O (stereo partly shown) [Example 4] — recorded inhibition at 0.1 µM = 94

Entry C[C@H]1CN(CC(Cc2ccccc2)NC(=O)CCC(=O)O)CC[C@@]1(C)c1cccc(O)c1 (stereo partly shown) [Example 14] — recorded inhibition at 0.1 µM = 64

Entry C[C@H]1CN(CCC(NC(=O)C(CCCNC(=N)N[N+](=O)[O-])NC(=O)CCCC(=O)NCc2ccccc2)c2ccccc2)CC[C@@]1(C)c1cccc(O)c1 (single isomer, unassigned; (-)) [Example 8] — recorded inhibition at 0.1 µM = 99

Entry CCOC(=O)CCCC(=O)NC(CCN1CC[C@@](C)(c2cccc(O)c2)[C@@H](C)C1)CC(C)C (stereo in doubt) [Example 3B, monohydrochloride] — recorded inhibition at 0.1 µM = 99

Entry C[C@H]1CN(CCN(C(=O)CCC(=O)O)C2CCCCC2)CC[C@@]1(C)c1cccc(O)c1 (relative stereo) [Example 22, monohydrate] — recorded inhibition at 0.1 µM = 93

Entry CCOC(=O)CCCC(=O)N(CCCN1CC[C@@](C)(c2cccc(O)c2)[C@@H](C)C1)C1CCCCC1 (relative stereo) [Example 33, monohydrochloride] — recorded inhibition at 0.1 µM = 99

Entry COC(=O)CCCC(=O)N[C@@H](CC1CCCCC1)CN1CC[C@](C)(c2cccc(O)c2)[C@H](C)C1 [Example 49] — recorded inhibition at 0.1 µM = 97

Entry CNC(=O)COC(=O)CCCC(=O)N[C@@H](CC1CCCCC1)CN1CC[C@@](C)(c2cccc(O)c2)[C@@H](C)C1 [Example 63] — recorded inhibition at 0.1 µM = 99

Entry CCOC(=O)CC(=O)N[C@H](Cc1ccccc1)CN1CC[C@](C)(c2cccc(O)c2)[C@H](C)C1 [Example 12, hydrochloride] — recorded inhibition at 0.1 µM = 87

The reported numbers originate from patent US5159081A.
